- assayed-system: ERRα (Homo sapiens)
- experiment: ERRE luciferase reporter assay in HEK293 cells transfected with pcDNA3.1 ERRα
- particulars: HEK293 cells transfected with ERRE reporter construct and pcDNA3.1 ERRα; compound for 24 hours; luciferase activity
Below, each entry is listed with its recorded EC50.

The following compounds have reported results that may help.
{"smiles-representation": "COc1cccc(-c2nnc(-c3ccc(C(F)(F)F)cc3)o2)c1", "result": "> 5000 nM"}
{"smiles-representation": "Cc1ccccc1-c1nnc(-c2ccccc2)s1", "result": "< 1000 nM"}
{"smiles-representation": "CC(C)(C)c1ccc(-c2nnc(-c3ccccc3[N+](=O)[O-])s2)cc1", "result": "< 1000 nM"}
{"smiles-representation": "FC(F)(F)c1ccc(-c2nnc(-c3ccco3)o2)cc1", "result": "1000 to 5000 nM"}
{"smiles-representation": "O=[N+]([O-])c1ccc(-c2nnc(-c3ccc(C(F)(F)F)cc3)o2)cc1", "result": "> 5000 nM"}
{"smiles-representation": "CCCCOc1ccc(-c2nnc(-c3ccccc3Cl)s2)cc1", "result": "< 1000 nM"}
{"smiles-representation": "O=[N+]([O-])c1ccc(-c2nnc(-c3ccccc3[N+](=O)[O-])o2)cc1", "result": "1000 to 5000 nM"}

# next compound below
Inquiry: Quickly give me recorded EC50 for CC(C)(C)c1ccc(-c2nnc(-c3ccccc3N)s2)cc1
Reply text: < 1000 nM

* * *

- assayed-system: ERRγ (Homo sapiens)
- experiment: ERRE luciferase reporter assay in HEK293 cells transfected with pcDNA3.1 ERRγ
- particulars: HEK293 cells transfected with ERRE reporter construct and pcDNA3.1 ERRγ; compound for 24 hours; luciferase activity
outcome-measure: EC50

Example entries begin here.
{"smiles-representation": "O=[N+]([O-])c1cccc(-c2nnc(-c3cccc(C(F)(F)F)c3)o2)c1", "EC50": "> 5000 nM"}
{"smiles-representation": "Cc1ccc(-c2nnc(-c3ccccc3)s2)cc1", "EC50": "< 1000 nM"}
{"smiles-representation": "FC(F)(F)c1ccc(-c2nnc(-c3ccccn3)s2)cc1", "EC50": "< 1000 nM"}
{"smiles-representation": "COc1ccc(-c2nnc(-c3ccc4ccccc4n3)o2)cc1", "EC50": "< 1000 nM"}

Inquiry: Output EC50 of FC(F)(F)c1cccc(-c2nnc(-c3ccccc3Cl)o2)c1
Reply text: > 5000 nM

* * *

- assayed-system: ERRγ (Homo sapiens, UniProt P62508)
- Sequence (P62508 whole entry): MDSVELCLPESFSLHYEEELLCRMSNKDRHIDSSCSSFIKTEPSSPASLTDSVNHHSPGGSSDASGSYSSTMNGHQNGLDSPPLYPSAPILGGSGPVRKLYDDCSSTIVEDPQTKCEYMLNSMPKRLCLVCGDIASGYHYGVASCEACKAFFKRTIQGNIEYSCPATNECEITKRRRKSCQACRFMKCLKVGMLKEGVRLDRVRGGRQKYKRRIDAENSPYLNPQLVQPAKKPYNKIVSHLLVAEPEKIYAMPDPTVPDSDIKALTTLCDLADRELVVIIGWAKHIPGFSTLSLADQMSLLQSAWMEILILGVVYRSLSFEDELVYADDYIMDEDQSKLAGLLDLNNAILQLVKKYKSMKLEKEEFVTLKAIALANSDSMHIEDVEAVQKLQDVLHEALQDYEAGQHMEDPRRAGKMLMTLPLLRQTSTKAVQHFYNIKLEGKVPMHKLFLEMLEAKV
- experiment: ERRE luciferase reporter assay in HEK293 cells transfected with pcDNA3.1 ERRγ
- particulars: HEK293 cells transfected with ERRE reporter construct and pcDNA3.1 ERRγ; compound for 24 hours; luciferase activity
Reported EC50 is given for each of the following compounds.

{"compound": "FC(F)(F)c1cccc(-c2nnc(-c3ccco3)o2)c1 [Entry 57]", "EC50": "1 to 5 µM"}
{"compound": "COc1ccc([N+](=O)[O-])c(-c2nnc(-c3ccccc3)s2)c1 [Entry 1035]", "EC50": "1 to 5 µM"}

Inquiry: Using the record for Clc1ccc(-c2nnc(-c3ccccc3)s2)cc1 [Entry 1017] , state its measured EC50.
Reply text: < 1 µM

Inquiry: Identify measured EC50 associated with Clc1ccc(-c2nnc(-c3ccccc3)o2)cc1 [Entry 2]
Reply text: < 1 µM

Inquiry: Indicate its recorded EC50; the compound in question is FC(F)(F)c1cccc(-c2nnc(-c3ccc4ccccc4n3)o2)c1 [Entry 60]
Reply text: 1 to 5 µM

Inquiry: Name the recorded EC50 of the compound listed here: COc1cccc(-c2nnc(-c3ccccc3)s2)c1 [Entry 1012]
Reply text: < 1 µM

Inquiry: Return reported EC50. Input compound: FC(F)(F)c1ccc(-c2nnc(-c3ccco3)o2)cc1 [Entry 44]
Reply text: 1 to 5 µM

Inquiry: Tell me measured EC50 for COc1ccc(-c2nnc(-c3ccccc3[N+](=O)[O-])o2)cc1 [Entry 82] please.
Reply text: < 1 µM

Inquiry: // Input: FC(F)(F)c1cccc(-c2nnc(-c3ccccc3)s2)c1 [Entry 1014] . Output its EC50 only.
Reply text: 1 to 5 µM

Inquiry: Using known records, supply EC50 for O=[N+]([O-])c1ccccc1-c1nnc(-c2ccc(C(F)(F)F)cc2)o1 [Entry 50]
Reply text: 1 to 5 µM

* * *

- assayed-system: ERRγ (Homo sapiens, UniProt P62508)
- experiment: ERRE luciferase reporter assay in HEK293 cells transfected with pcDNA3.1 ERRγ
- particulars: HEK293 cells transfected with ERRE reporter construct and pcDNA3.1 ERRγ; compound for 24 hours; luciferase activity
pEC50: −log10 of the molar value.
# maps each entry to its pEC50

Before answering, review these 8 worked examples.
{"compound": "Cc1ccc(-c2nnc(-c3ccccc3Cl)s2)cc1 [Entry 1003]", "result": "> 6.00"}
{"compound": "COc1ccc([N+](=O)[O-])c(-c2nnc(-c3ccccc3)o2)c1 [Entry 87]", "result": "< 5.30"}
{"compound": "COc1ccc(-c2nnc(-c3ccccc3[N+](=O)[O-])s2)cc1 [Entry 1021]", "result": "> 6.00"}
{"compound": "O=[N+]([O-])c1ccc(Br)cc1-c1nnc(-c2ccccc2)o1 [Entry 84]", "result": "< 5.30"}
{"compound": "c1ccc(-c2nnc(C34CC5CC(CC(C5)C3)C4)s2)cc1 [Entry 1007]", "result": "> 6.00"}
{"compound": "Cc1ccc(-c2nnc(-c3ccc4ccccc4n3)s2)cc1 [Entry 1042]", "result": "> 6.00"}
{"compound": "Cc1ccc(-c2nnc(-c3cnn(-c4ccccc4)c3)s2)cc1 [Entry 1053]", "result": "> 6.00"}
{"compound": "FC(F)(F)c1cccc(-c2nnc(-c3ccnc4ccccc34)o2)c1 [Entry 59]", "result": "5.30 to 6.00"}

Inquiry: State its pEC50: Cc1ccc(-c2nnc(-c3ccccc3[N+](=O)[O-])s2)cc1 [Entry 1005]
Reply text: > 6.00

* * *

- assayed-system: ERRα (Homo sapiens, UniProt P11474)
- Sequence (P11474 whole entry, species assumed): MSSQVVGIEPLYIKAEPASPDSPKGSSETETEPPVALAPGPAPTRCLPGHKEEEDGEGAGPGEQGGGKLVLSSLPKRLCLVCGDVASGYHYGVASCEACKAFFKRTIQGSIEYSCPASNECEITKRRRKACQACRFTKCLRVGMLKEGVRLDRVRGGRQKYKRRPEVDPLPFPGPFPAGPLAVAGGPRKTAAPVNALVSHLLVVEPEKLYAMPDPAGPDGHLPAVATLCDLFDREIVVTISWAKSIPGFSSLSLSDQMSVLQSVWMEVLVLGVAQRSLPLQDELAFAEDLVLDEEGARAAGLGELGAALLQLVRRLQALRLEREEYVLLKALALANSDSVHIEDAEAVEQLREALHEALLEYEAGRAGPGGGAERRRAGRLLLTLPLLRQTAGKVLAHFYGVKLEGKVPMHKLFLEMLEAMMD
- experiment: ERRE luciferase reporter assay in HEK293 cells transfected with pcDNA3.1 ERRα
- particulars: HEK293 cells transfected with ERRE reporter construct and pcDNA3.1 ERRα; compound for 24 hours; luciferase activity
pEC50: −log10 of the molar value.
outcome-measure: pEC50

Please review the following examples before continuing.
{"compound": "Cc1ccc(-c2nnc(-c3ccccc3)s2)cc1 [Entry 1002, 2-phenyl-5-(p-tolyl)-1,3,4-thiadiazole]", "pEC50": "> 6.00"}
{"compound": "c1ccc(-c2nnc(-c3cccs3)o2)cc1 [Entry 3]", "pEC50": "> 6.00"}
{"compound": "FC(F)(F)c1ccc(-c2nnc(-c3ccccc3Cl)o2)cc1 [Entry 53]", "pEC50": "> 6.00"}
{"compound": "Cc1ccc(-c2nnc(-c3cccs3)s2)cc1 [Entry 1031]", "pEC50": "> 6.00"}
{"compound": "FC(F)(F)c1cccc(-c2nnc(-c3ccco3)o2)c1 [Entry 57]", "pEC50": "> 6.00"}

Inquiry: Provide measured pEC50 value, entry: O=[N+]([O-])c1ccc(Br)cc1-c1nnc(-c2ccccc2)o1 [Entry 84]
Reply text: < 5.30

Inquiry: Return pEC50 (reported value) for this compound: Cc1ccc(-c2nnc(-c3ccc(C)o3)s2)cc1 [Entry 1029]
Reply text: 5.30 to 6.00

Inquiry: Name the recorded pEC50 of the compound listed here: O=[N+]([O-])c1cccc(-c2nnc(-c3ccccc3)o2)c1 [Entry 81]
Reply text: 5.30 to 6.00

Inquiry: Consider the compound FC(F)(F)c1cccc(-c2nnc(-c3ccccc3Cl)o2)c1 [Entry 65] . State its measured pEC50.
Reply text: 5.30 to 6.00

Inquiry: For the compound Cc1ccc(-c2nnc(-c3ccnc4ccccc34)o2)cc1 [Entry 34] , report pEC50.
Reply text: > 6.00

* * *

Reported pEC50 values for the following molecules.
- assayed-system: ERRα (Homo sapiens, UniProt P11474)
- experiment: ERRE luciferase reporter assay in HEK293 cells transfected with pcDNA3.1 ERRα
- particulars: HEK293 cells transfected with ERRE reporter construct and pcDNA3.1 ERRα; compound for 24 hours; luciferase activity
pEC50: −log10 of the molar value.

Known results for molecules:
{"molecule": "COc1ccc(-c2nnc(-c3ccccc3[N+](=O)[O-])s2)cc1 [Entry 1021]", "assayed-system": "ERRα (Homo sapiens, UniProt P11474)", "result": "> 6.00"}
{"molecule": "O=[N+]([O-])c1ccc(-c2nnc(-c3ccc([N+](=O)[O-])cc3)o2)cc1 [Entry 13, 2,5-bis(4-nitrophenyl)-1,3,4-oxadiazole]", "assayed-system": "ERRα (Homo sapiens, UniProt P11474)", "result": "5.30 to 6.00"}
{"molecule": "FC(F)(F)c1cccc(-c2nnc(-c3ccc4ccccc4n3)o2)c1 [Entry 60]", "assayed-system": "ERRα (Homo sapiens, UniProt P11474)", "result": "5.30 to 6.00"}
{"molecule": "COc1ccc(-c2nnc(-c3ccc(C)o3)o2)cc1 [Entry 19]", "assayed-system": "ERRα (Homo sapiens, UniProt P11474)", "result": "> 6.00"}
{"molecule": "COc1ccc([N+](=O)[O-])c(-c2nnc(-c3ccccc3)o2)c1 [Entry 87]", "assayed-system": "ERRα (Homo sapiens, UniProt P11474)", "result": "5.30 to 6.00"}

Inquiry: Enter pEC50 (test system ERRα (Homo sapiens, UniProt P11474)) for Cc1ccc(-c2nnc(-c3cnn(-c4ccccc4)c3)s2)cc1 [Entry 1053]
Reply text: < 5.30

Inquiry: Give pEC50 for FC(F)(F)c1cccc(-c2nnc(-c3ccccn3)o2)c1 [Entry 61] tested on ERRα (Homo sapiens, UniProt P11474).
Reply text: > 6.00

Inquiry: GET pEC50 | system: ERRα (Homo sapiens, UniProt P11474) | item: Clc1ccccc1-c1nnc(-c2cccc3ncccc23)s1 [Entry 1059]
Reply text: > 6.00

Inquiry: Name the recorded pEC50 of c1ccc(-c2nnc(-c3cnccn3)s2)cc1 [Entry 1010] , assay system ERRα (Homo sapiens, UniProt P11474).
Reply text: > 6.00

Inquiry: Report value only: pEC50, ERRα (Homo sapiens, UniProt P11474), COc1ccc(-c2nnc(-c3ccco3)o2)cc1 [Entry 18]
Reply text: > 6.00

Inquiry: Output reported pEC50 of the molecule COc1ccc(-c2nnc(-c3ccc(C)o3)s2)cc1 [Entry 1020] on ERRα (Homo sapiens, UniProt P11474).
Reply text: > 6.00

Inquiry: Jot down pEC50 (ERRα (Homo sapiens, UniProt P11474)) of Nc1ccc(-c2nnc(-c3ccccc3)s2)cc1 [Entry 1030] .
Reply text: > 6.00

Inquiry: Look up and report pEC50, with ERRα (Homo sapiens, UniProt P11474) as system, for Cc1ccc(-c2nnc(-c3ccccc3[N+](=O)[O-])o2)o1 [Entry 76]
Reply text: 5.30 to 6.00

Inquiry: Return reported pEC50 for target or system ERRα (Homo sapiens, UniProt P11474), item COc1ccc(-c2nnc(-c3ccccc3)o2)c(N)c1 [Entry 71] .
Reply text: > 6.00
